- system.name: C-C chemokine receptor type 5 (Homo sapiens, UniProt P51681)
- Sequence (P51681 whole entry): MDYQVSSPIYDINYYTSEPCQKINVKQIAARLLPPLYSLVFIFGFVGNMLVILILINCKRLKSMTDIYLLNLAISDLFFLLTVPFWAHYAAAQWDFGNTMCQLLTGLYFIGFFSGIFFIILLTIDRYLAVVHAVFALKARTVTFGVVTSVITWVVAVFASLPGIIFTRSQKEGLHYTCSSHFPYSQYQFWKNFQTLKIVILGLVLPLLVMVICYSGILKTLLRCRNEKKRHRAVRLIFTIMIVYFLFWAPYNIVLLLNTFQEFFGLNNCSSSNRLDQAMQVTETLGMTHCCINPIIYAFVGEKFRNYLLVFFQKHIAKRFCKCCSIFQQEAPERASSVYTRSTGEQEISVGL
observed.property: IC50 (nM)

[
  {
    "line.notation": "O=C(O)CN1C[C@H](CN2CCC(O)(CCCc3ccccc3)CC2)[C@@H](c2ccccc2)C1",
    "meas.value": 6
  },
  {
    "line.notation": "C[C@H](C(=O)O)N1C[C@H](CN2CCC(O)(CCCc3ccccc3)CC2)[C@@H](c2ccccc2)C1",
    "meas.value": 3
  },
  {
    "line.notation": "O=C(O)[C@@H](CC1CCC1)N1C[C@H](CN2CCC(CCCc3ccccc3)CC2)[C@@H](c2ccccc2)C1",
    "meas.value": 0.1
  },
  {
    "line.notation": "O=C(O)[C@@H](C1CCCCC1)N1C[C@H](CN2CCC(CCCc3ccccc3)CC2)[C@@H](c2ccccc2)C1",
    "meas.value": 0.1
  }
]

====

- run.description: Volume of distribution in steady state was determined in dog
- Assay type: ADME, organism-based, Canis lupus familiaris
- assay.conditions: in vivo, read-out: Vdss

[
  {
    "line.notation": "CC(C)[C@H](C(=O)O)N1C[C@H](CN2CCC(c3ccc(F)cc3)CC2)[C@@H](c2ccccc2)C1",
    "Vd, L/kg": 8.6
  },
  {
    "line.notation": "O=C(O)[C@@H](C1CCCCC1)N1C[C@H](CN2CCC(CCCc3ccccc3)CC2)[C@@H](c2ccccc2)C1",
    "Vd, L/kg": 3.1
  }
]

====

Reported half-life by item:
- run.description: Half-life in dog
- Type: ADME, organism-based, Canis lupus familiaris
- assay.conditions: in vivo
observed.property: half-life (h)

[
  {
    "line.notation": "O=C(O)[C@@H](C1CCCCC1)N1C[C@H](CN2CCC(CCCc3ccccc3)CC2)[C@@H](c2ccccc2)C1",
    "observed.property": "half-life",
    "units.of.measure": "h",
    "meas.value": 9.2
  },
  {
    "line.notation": "CC(C)[C@H](C(=O)O)N1C[C@H](CN2CCC(c3ccc(F)cc3)CC2)[C@@H](c2ccccc2)C1",
    "observed.property": "half-life",
    "units.of.measure": "h",
    "meas.value": 6.4
  }
]

====

- run.description: Bioavailability in rat
- Type: ADME, organism-based
- assay.conditions: in vivo

[
  {
    "line.notation": "CC(C)[C@H](C(=O)O)N1C[C@H](CN2CCC(c3ccc(F)cc3)CC2)[C@@H](c2ccccc2)C1",
    "units.of.measure": "%",
    "bioavailability": 50
  },
  {
    "line.notation": "O=C(O)[C@@H](C1CCCCC1)N1C[C@H](CN2CCC(O)(CCCc3ccccc3)CC2)[C@@H](c2ccccc2)C1",
    "units.of.measure": "%",
    "bioavailability": 0
  },
  {
    "line.notation": "O=C(O)[C@@H](C1CCCCC1)N1C[C@H](CN2CCC(CCCc3ccccc3)CC2)[C@@H](c2ccccc2)C1",
    "units.of.measure": "%",
    "bioavailability": 26
  },
  {
    "line.notation": "OC1(CCCc2ccc(-c3nnn[nH]3)cc2)CCN(C[C@H]2CN(CC3CCCCC3)C[C@@H]2c2ccccc2)CC1",
    "units.of.measure": "%",
    "bioavailability": 0
  },
  {
    "line.notation": "O=C(O)[C@@H](CC1CCC1)N1C[C@H](CN2CCC(CCCc3ccccc3)CC2)[C@@H](c2ccccc2)C1",
    "units.of.measure": "%",
    "bioavailability": 29
  }
]
